Molecular target: Amine oxidase [copper-containing] 3 (Homo sapiens) (UniProt Q16853)
Sequence (Q16853 whole entry): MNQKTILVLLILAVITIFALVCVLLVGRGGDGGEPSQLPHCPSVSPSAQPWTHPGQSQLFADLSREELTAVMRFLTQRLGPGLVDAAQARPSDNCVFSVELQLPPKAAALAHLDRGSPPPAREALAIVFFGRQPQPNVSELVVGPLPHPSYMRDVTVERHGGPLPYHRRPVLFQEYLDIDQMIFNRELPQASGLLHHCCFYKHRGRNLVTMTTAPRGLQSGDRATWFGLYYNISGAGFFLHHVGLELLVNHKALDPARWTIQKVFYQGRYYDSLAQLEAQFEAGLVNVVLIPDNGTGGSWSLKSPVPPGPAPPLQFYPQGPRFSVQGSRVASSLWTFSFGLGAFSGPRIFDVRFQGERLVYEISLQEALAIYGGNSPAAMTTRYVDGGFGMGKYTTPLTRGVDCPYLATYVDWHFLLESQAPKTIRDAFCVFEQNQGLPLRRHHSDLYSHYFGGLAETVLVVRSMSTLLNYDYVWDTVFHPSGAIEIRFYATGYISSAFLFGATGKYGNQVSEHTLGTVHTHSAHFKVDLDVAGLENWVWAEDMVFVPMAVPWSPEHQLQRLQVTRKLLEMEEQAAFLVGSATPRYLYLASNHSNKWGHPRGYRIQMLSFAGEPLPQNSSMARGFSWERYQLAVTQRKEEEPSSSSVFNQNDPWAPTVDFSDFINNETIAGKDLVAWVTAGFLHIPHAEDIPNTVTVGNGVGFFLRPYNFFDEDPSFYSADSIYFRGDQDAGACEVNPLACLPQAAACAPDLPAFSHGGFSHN
Experiment: Activity of human SSAO measured as hydrogen peroxide production at 1 mM relative to benzylamine oxidation
Assay type: functional
Recorded measurements of Activity, one per entry
Field note: include the unit after the figure.

Guide cases for Activity, answers given:
Input line: Would you kindly share the measured Activity for `COc1ccc(O)c(CN)c1` ?
Output line: 0%

Input line: Requested read-out: Activity. Entry: `C=CCOC(=O)NCc1cccc(CN)c1`
Output line: 21%

Input line: Suppose we examine the compound `Cc1ccc(CN)cc1` ; what Activity value has been reported?
Output line: 0%

Input line: # Activity lookup, item `NCCc1ccc(F)cc1`
Output line: 35%

Input line: I am curious: what Activity value has been reported for `CCc1ccc(CN)cc1` ?
Output line: 14%

Continuing:
Input line: Would you mind telling me what Activity value was observed for `Cc1ccc(CN)cc1F` ?
Output line: 88%

Input line: Field request: Activity | item: `NCCOc1ccccc1`
Output line: 17.9%

Input line: Tell me the measured Activity of `NCc1ccc(C(=O)NCc2cccc(CN)c2)cc1` , please.
Output line: 17%
